The reported numbers originate from paper PMC10190190.

# TGT: HDAC6 (Homo sapiens)
# Sequence (Q9UBN7 1-1215): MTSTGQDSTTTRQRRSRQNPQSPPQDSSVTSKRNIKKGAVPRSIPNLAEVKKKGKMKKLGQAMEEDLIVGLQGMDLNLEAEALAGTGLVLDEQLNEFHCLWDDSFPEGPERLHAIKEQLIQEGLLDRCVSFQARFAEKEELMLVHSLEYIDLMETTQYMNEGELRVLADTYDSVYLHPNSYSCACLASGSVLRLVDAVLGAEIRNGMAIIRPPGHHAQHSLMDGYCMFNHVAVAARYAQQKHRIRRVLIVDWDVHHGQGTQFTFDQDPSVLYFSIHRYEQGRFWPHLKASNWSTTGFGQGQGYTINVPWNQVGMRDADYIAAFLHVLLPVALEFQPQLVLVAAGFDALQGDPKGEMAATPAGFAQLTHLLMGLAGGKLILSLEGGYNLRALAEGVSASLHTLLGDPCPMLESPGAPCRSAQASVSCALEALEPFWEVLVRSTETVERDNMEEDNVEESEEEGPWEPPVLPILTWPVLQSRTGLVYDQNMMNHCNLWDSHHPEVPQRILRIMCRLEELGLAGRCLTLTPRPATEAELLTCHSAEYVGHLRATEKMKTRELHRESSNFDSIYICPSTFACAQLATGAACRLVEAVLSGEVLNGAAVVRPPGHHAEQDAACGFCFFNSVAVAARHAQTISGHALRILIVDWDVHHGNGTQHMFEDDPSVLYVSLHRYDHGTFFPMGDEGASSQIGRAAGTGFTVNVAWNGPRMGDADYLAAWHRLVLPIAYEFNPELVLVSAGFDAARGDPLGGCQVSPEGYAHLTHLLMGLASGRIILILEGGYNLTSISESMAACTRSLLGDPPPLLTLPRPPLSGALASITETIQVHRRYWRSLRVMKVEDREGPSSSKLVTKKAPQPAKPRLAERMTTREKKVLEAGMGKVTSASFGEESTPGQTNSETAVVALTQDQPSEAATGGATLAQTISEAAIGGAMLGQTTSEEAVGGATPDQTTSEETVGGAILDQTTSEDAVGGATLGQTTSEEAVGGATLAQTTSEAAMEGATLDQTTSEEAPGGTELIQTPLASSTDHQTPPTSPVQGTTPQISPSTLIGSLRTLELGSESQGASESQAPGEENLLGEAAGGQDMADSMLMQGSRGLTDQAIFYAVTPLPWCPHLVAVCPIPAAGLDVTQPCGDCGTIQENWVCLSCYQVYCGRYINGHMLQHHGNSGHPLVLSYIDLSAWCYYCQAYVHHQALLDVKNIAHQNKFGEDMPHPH
MEASURED_PROPERTY: IC50 (nM)
Respond with the bare value in nM.

Recorded IC50 for O=C(NO)c1ccc(CN2c3ccccc3Oc3ccccc32)cc1 , please?
17

Can you check O=C(NO)c1ccc(CN2c3ccccc3Oc3ccc(C(=O)Nc4ccccc4)cc32)cc1 [Compound 12b] next?
46

Can you check O=C(NO)c1ccc(CN2c3ccccc3Oc3cc(-c4ccccc4)ccc32)cc1 next?
23

Can you check O=C(NO)c1ccc(CN2c3ccccc3Oc3cc(Br)ccc32)cc1 next?
15

Can you check O=C(NO)c1ccc(CN2c3ccccc3Oc3cc(C(=O)Nc4ccccc4)ccc32)cc1 [Compound 12d] next?
43.1

Can you check N#Cc1ccc2c(c1)Oc1ccccc1N2Cc1ccc(C(=O)NO)cc1 next?
20

Can you check NC(=O)c1ccc2c(c1)Oc1ccccc1N2Cc1ccc(C(=O)NO)cc1 next?
8

Can you check O=C(NO)c1ccc(CN2c3ccccc3Oc3cc(C(=O)Nc4ccc(C(=O)c5ccccc5)cc4)ccc32)cc1 [Compound 12c] next?
74.8
